B1: Haloalkane dehalogenase, D4Z2G1 (parent)
chain: MSLGAKPFGEKKFIEIKGRRMAYIDEGTGDPILFQHGNPTSSYLWRNIMPHCAGLGRLIACDLIGMGDSDKLDPSGPERYAYAEHRDYLDALWEALDLGDRVVLVVHDWGSALGFDWARRHRERVQGIAYMEAIAMPIEWADFPEQDRDLFQAFRSQAGEELVLQDNVFVEQVLPGLILRPLSEAEMAAYREPFLAAGEARRPTLSWPRQIPIAGTPADVVAIARDYAGWLSESPIPKLFINAEPGALTTGRMRDFCRTWPNQTEITVAGAHFIQEDSPDEIGAAIAAFVRRLRPA

Variants of: B1
CONDITION: Sphingobium indicum (strain DSM 16413 / CCM 7287 / MTCC 6362 / UT26 / NBRC 101211 / UT26S); pH 7.5; Thermal; fluorescence; Na-Hepes 50 mM; reversible: no; structure 1MJ5; whole UniProt chain shown
Reported Tm by item:
VALUE_TYPE: Tm (°C)

MUTATION_LABEL	QUANTITY_UNIT	REPORTED
E78H	°C	51
E244I	°C	50
D226K	°C	50.5
E26Q	°C	51
D255Q	°C	50.5
D255K	°C	50.5
A83L	°C	51.5
D255A	°C	51.5
V103I	°C	51
R20L	°C	50
G229R	°C	51.5

Where do the numbers come from? From FireProtDB (doi:10.1002/cbic.201402128).
